# assay.comment: CCTE_Shafer_MEA_dev_LDH: CCTE's Lactate Dehydrogenase Assay for Cytotoxicity in the Neural Network Formation Assay, Shafer Lab (AID 2284068);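 note: exposure for twelve days from plating with re-dosing on DIV 5 and 9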
Records with an inconclusive call do not appear. Calls of active or inactive are those of the source. Rule for the calls: active = hit-call score of the fitted dose curve at least 0.9, where 1 is the maximum; inconclusive = response in the unintended direction; inactive = score below 0.9.
A collection of compounds and their measured AC50
result.type: AC50

{"columns": ["compound", "result.type", "observed.value"],
 "data": [
  ["NC(=O)c1ccc(N)nc1", "AC50", "6.05 µM (active)"],
  ["Cc1ccccc1OP(=O)(Oc1ccccc1C)Oc1ccccc1C", "AC50", "20.2 µM (active)"],
  ["OC(Cc1ccccc1Cl)(Cn1[nH]cnc1=S)C1(Cl)CC1 (stereo not given)", "AC50", "73.5 µM (active)"],
  ["Cc1cc(C(F)(C(F)(F)F)C(F)(F)F)ccc1NC(=O)c1cccc(I)c1C(=O)NC(C)(C)CS(C)(=O)=O", "AC50", "11.3 µM (active)"],
  ["CC1(C)[C@H](C(=O)O[C@H](C#N)c2cccc(Oc3ccccc3)c2)[C@@H]1/C=C(\\Cl)C(F)(F)F", "AC50", "22.7 µM (active)"]
]}

###

# system.name: Bile acid receptor (Homo sapiens)
# assay.comment: ATG_FXR_TRANS: Attagene TRANS-FACTORIAL HepG2 Assay for Farnesoid X Receptor (FXR) (AID 2282979);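 note: hits raise reporter mRNA above DMSO so AC50 marks FXR activation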
# condition.description: HepG2 Attagene TRANS FXR-GAL4 reporter transcription
Inconclusive results are not listed. Calls of active or inactive are those of the source. The calls were made as follows: active = hit-call score of the fitted dose curve at least 0.9, where 1 is the maximum; inconclusive = response in the unintended direction; inactive = score below 0.9.
Possible outcomes: 1 = active, 0 = inactive

{"columns": ["molecule", "group.label"],
 "data": [
  ["CCCCOP(=O)(CCCC)OCCCC", 0],
  ["CCOC(=O)C(SP(=S)(OC)OC)c1ccccc1 (centres undefined)", 1],
  ["CC(C)(C)c1cc([N+](=O)[O-])cc(C(C)(C)C)c1O", 0],
  ["CCCCCCCCBr", 0],
  ["CCOC(=O)Cc1ccccc1", 0],
  ["CCOP(=S)(OCC)O/N=C(\\C#N)c1ccccc1", 0],
  ["OC(Cc1ccccc1Cl)(Cn1cncn1)C1(Cl)CC1 (centres undefined)", 0],
  ["O=c1oc2ccccc2c(O)c1C(CC(O)c1ccc(-c2ccc(Br)cc2)cc1)c1ccccc1 (centres undefined)", 0],
  ["C=CC(F)(C(F)(F)F)C(F)(F)C(F)(F)F (centres undefined)", 0],
  ["Cc1ccc(CCl)cc1", 0],
  ["OC(c1ccc(Cl)cc1)(c1ccc(Cl)cc1)c1cccnc1", 0],
  ["C=CCOC(N)=O", 0],
  ["COP(=S)(OC)Oc1cc(Cl)c(I)cc1Cl", 0],
  ["O=c1[nH]c2ccccc2n1C1CCN(CCCC(c2ccc(F)cc2)c2ccc(F)cc2)CC1", 0]
]}

###

# assay.comment: BSK_CASM3C_Proliferation: Cell Proliferation Assessment in the BioMAP Diversity Plus: CASM3C Assay (AID 2283047);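 note: sulforhodamine B total protein stain as relative cell number at 560 nm; sub-confluent cells exposed 48 h before staining; fitted both ways against DMSO so gain or loss of cell number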
# condition.description: primary human coronary artery smooth muscle cells
The source made the active and inactive calls. How the source made its calls: active means hit-call score of the fitted dose curve at least 0.9, where 1 is the maximum; inactive means score below 0.9.
Outcome codes: active, inactive

{"columns": ["compound", "group.label"],
 "data": [
  ["C#CCOC(=O)/C=C(C)/C=C/CC(C)CCCC(C)C (stereo not drawn)", "inactive"],
  ["Cc1cc(Cl)ccc1OC(C)C(=O)O (stereo not drawn)", "inactive"],
  ["C=CC(Cl)CCl (stereo not drawn)", "inactive"],
  ["O=S(=O)(C(Cl)(Cl)Cl)C(Cl)(Cl)Cl", "active"],
  ["Oc1cccc(-c2ccccc2)c1", "active"],
  ["CN(C)C(=S)S", "active"],
  ["O=C(Cc1ccccc1)OCCc1ccccc1", "inactive"],
  ["Oc1c(Br)cc(Br)cc1Br", "inactive"]
]}

###

# system.name: human Peroxisome Proliferator-activated Receptor alpha (PPARa), PPARA (gene 5465) (UniProt Q07869)
# Sequence (Q07869 whole entry, looked up): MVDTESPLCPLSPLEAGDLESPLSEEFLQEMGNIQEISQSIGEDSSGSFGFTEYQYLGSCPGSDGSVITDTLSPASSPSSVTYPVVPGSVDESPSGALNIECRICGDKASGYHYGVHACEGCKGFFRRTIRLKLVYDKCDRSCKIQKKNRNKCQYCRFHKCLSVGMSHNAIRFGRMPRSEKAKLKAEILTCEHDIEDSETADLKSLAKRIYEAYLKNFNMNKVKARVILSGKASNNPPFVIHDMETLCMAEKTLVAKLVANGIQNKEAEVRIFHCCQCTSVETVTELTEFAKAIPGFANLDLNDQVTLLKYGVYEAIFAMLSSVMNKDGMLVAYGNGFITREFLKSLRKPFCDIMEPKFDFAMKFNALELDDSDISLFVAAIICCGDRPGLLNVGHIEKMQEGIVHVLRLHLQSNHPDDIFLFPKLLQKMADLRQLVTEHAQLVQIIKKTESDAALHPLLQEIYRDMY
# assay.comment: ATG_PPARa_TRANS: Attagene TRANS-FACTORIAL HepG2 Assay for human Peroxisome Proliferator-activated Receptor alpha (PPARa) (AID 2283001)
Inconclusive results are not listed. The source made the active and inactive calls. Rule for the calls: active = hit-call score of the fitted dose curve at least 0.9, where 1 is the maximum; inconclusive = response in the unintended direction; inactive = score below 0.9.
Labels: active, inactive

{"columns": ["molecule", "group.label"],
 "data": [
  ["CN(CCCC(O)c1cccnc1)N=O (configuration not stated)", "inactive"],
  ["Oc1ccc(Cc2ccc(O)cc2)cc1", "inactive"],
  ["BrCCCCBr", "inactive"],
  ["O=CCCl", "inactive"],
  ["C[C@H]1C(=O)O[C@@H]2CCN3CC=C(COC(=O)[C@](C)(O)[C@]1(C)O)[C@H]23", "inactive"],
  ["NC(=O)CCl", "inactive"],
  ["Brc1c(Br)c(Br)c(Oc2c(Br)c(Br)c(Br)c(Br)c2Br)c(Br)c1Br", "inactive"],
  ["CCCCCCCCCCCCN(C)C", "inactive"],
  ["CC(C)(C)c1ccc(CCOc2ncnc3ccccc23)cc1", "inactive"],
  ["CC(=Cc1ccccc1)[N+](=O)[O-]", "active"],
  ["CCOC(=O)CC(=O)CCl", "inactive"],
  ["Cc1ccc(CCl)cc1", "inactive"],
  ["Clc1cnc(Oc2ccc(Oc3ncc(Cl)cc3Cl)cc2)c(Cl)c1", "inactive"],
  ["O=C(O)COc1ccc(Cl)cc1", "inactive"],
  ["Cc1cc(SCc2sc(-c3ccc(C(F)(F)F)c(F)c3)nc2C)ccc1OCC(=O)O", "active"],
  ["Cc1cc(Cl)ccc1OC(C)C(=O)O (configuration not stated)", "inactive"],
  ["O=NN1CCOCC1", "inactive"],
  ["Cc1cccc(N=Nc2ccc(N(C)C)cc2)c1", "inactive"],
  ["Nc1c(Oc2ccccc2)cc(O)c2c1C(=O)c1ccccc1C2=O", "inactive"],
  ["O=C(CCl)Nc1ccccc1", "inactive"],
  ["CS(=O)(=O)c1ccc(C(=O)C2C(=O)CCCC2=O)c(Cl)c1COCC(F)(F)F", "inactive"],
  ["C=CCCl", "inactive"],
  ["O=C(Cl)OCCOCCOC(=O)Cl", "inactive"],
  ["CN(C)CCN(C)C", "inactive"],
  ["CNC(=O)N(C)c1nc2ccccc2s1", "inactive"],
  ["Cc1cc(Cl)ccc1OCCCC(=O)O", "inactive"],
  ["CCOCn1c(-c2ccc(Cl)cc2)c(C#N)c(Br)c1C(F)(F)F", "inactive"],
  ["Cc1cc(Cl)ccc1N", "inactive"],
  ["C=CC(=O)NC(C)(C)CC(C)=O", "inactive"],
  ["Brc1ccc(Br)cc1", "inactive"],
  ["C=CCc1ccccc1O", "inactive"],
  ["O=c1nc(O)n(Cl)c(=O)n1Cl", "inactive"],
  ["O=C1c2ccccc2C(=O)C1C(=O)C(c1ccccc1)c1ccc(Cl)cc1 (configuration not stated)", "inactive"],
  ["O=C(O)c1cc(I)cc(I)c1I", "active"],
  ["N#Cc1ccncc1", "inactive"],
  ["O=C(NC(=O)c1c(F)cccc1F)Nc1cc(Cl)c(OC(F)(F)C(F)C(F)(F)F)cc1Cl (configuration not stated)", "inactive"],
  ["COc1ccc([N+](=O)[O-])cc1O", "inactive"],
  ["Cc1ccc2nc3sc(=O)sc3nc2c1", "inactive"],
  ["CCCCCCCCBr", "inactive"],
  ["CC1(C)COP(Oc2ccccc2)OC1", "inactive"],
  ["c1ccc2c(c1)Oc1ccccc1O2", "inactive"],
  ["O=C(O)CC(O)(CC(=O)O)C(=O)O", "inactive"],
  ["O=[N+]([O-])c1ccc(Nc2ccccc2)cc1", "inactive"],
  ["COc1ccccc1N", "inactive"],
  ["CCCCCCCCCCBr", "inactive"],
  ["C=CC(=O)[O][Sn]([CH2]CCC)([CH2]CCC)[CH2]CCC", "active"],
  ["CC(C)O.CC(C)O.OCCN(CCO)CCO.OCCN(CCO)CCO.[Ti]", "inactive"],
  ["Nc1ccc(-c2ccccc2)cc1", "inactive"],
  ["N#CCCC(Br)(C#N)CBr (configuration not stated)", "inactive"],
  ["CCCCCCCCCCCCBr", "inactive"],
  ["CN(C)c1ccc(N=O)cc1", "inactive"],
  ["CCCCOC(C)=O", "inactive"],
  ["COc1ccc(N)cc1", "inactive"],
  ["CCCCCCCCCCCCCCC(Br)C(=O)O (configuration not stated)", "active"],
  ["CNC(=O)CSP(=O)(OC)OC", "inactive"],
  ["CCOc1cc(C=O)ccc1O", "inactive"],
  ["N#CCC#N", "inactive"],
  ["O=C(Cc1ccccc1)OCCc1ccccc1", "inactive"],
  ["C=CCN=C=S", "inactive"],
  ["CCCSP(=S)(OCC)Oc1ccc(Cl)cc1Cl (configuration not stated)", "inactive"],
  ["CC[N+](CC)(CC)CC", "inactive"],
  ["OC[C@@H](O)[C@H]1O[C@@H]2O[C@H](C(Cl)(Cl)Cl)O[C@@H]2[C@H]1O", "inactive"]
]}
